Target: TbNMT (Trypanosoma brucei brucei)
Sequence (Q388H8 1-446): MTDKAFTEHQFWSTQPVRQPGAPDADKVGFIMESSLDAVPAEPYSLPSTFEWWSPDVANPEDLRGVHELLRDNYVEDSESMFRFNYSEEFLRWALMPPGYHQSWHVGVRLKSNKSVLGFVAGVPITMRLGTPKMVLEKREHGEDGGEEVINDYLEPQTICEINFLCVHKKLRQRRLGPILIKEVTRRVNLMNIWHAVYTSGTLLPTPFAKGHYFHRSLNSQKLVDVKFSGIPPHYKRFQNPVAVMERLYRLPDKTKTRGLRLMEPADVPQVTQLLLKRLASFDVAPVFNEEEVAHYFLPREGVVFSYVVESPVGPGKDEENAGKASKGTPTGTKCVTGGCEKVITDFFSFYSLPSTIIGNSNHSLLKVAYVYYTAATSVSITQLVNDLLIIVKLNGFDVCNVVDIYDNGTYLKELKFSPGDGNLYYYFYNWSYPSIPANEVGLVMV
attributeMeasured: IC50

Cc1nn(C)c(C)c1NCc1ccc(Br)cc1 = > 100 µM

FYI, the data here is from paper PMC3256935.
